target: Fyn (Homo sapiens, UniProt P06241)
Sequence (P06241 whole entry, species assumed): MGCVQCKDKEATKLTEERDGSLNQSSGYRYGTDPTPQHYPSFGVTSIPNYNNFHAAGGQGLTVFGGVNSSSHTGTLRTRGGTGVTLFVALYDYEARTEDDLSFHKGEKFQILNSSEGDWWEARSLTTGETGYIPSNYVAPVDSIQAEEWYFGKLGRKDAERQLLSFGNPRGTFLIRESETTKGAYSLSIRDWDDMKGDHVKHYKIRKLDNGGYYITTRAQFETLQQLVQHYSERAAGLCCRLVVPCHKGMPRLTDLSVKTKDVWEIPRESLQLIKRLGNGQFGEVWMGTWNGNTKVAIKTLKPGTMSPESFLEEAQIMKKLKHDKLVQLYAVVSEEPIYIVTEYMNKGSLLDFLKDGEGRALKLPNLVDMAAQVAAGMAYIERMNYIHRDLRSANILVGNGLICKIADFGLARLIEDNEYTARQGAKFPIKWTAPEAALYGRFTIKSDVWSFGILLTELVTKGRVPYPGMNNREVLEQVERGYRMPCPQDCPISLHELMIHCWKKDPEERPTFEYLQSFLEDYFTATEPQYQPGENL
Quantity name: IC50

Completed entries (count: 3):
[
  {
    "Molecule": "COc1cccc(Nc2nc3ccccc3n2-c2ncnc(Nc3cc(OC)c(OC)c(OC)c3)n2)c1 [Compound 415]",
    "Tested on": "Fyn (Homo sapiens, UniProt P06241)",
    "IC50": "> 9.01 µM"
  },
  {
    "Molecule": "COc1cc(Nc2ncnc(Nc3cccc(Br)c3)n2)cc(OC)c1OC [Compound 75]",
    "Tested on": "Fyn (Homo sapiens, UniProt P06241)",
    "IC50": "0.925 to 5.55 µM"
  },
  {
    "Molecule": "COc1cc(Nc2ncnc(NC(=O)Nc3ccccc3)n2)cc(OC)c1OC [Compound 852]",
    "Tested on": "Fyn (Homo sapiens, UniProt P06241)",
    "IC50": "> 11.4 µM"
  }
]

Turning now to a further molecule:
Report the value of IC50 obtained on Fyn (Homo sapiens, UniProt P06241) for COc1cc(Nc2ncnc(Nc3cc(-c4ccccc4)n[nH]3)n2)cc(OC)c1OC [Compound 102] . < 0.954 µM
